system: protease according to SEQ ID NO: 3; assay: Relative proteolytic activity with reversible inhibitor in liquid surfactant preparation (Example 1); assay type: biochemical; settings: Table 2; benzylmalonic acid in amount inhibiting starting enzyme by 20-40%; 50% conc. surfactant preparation, 0.92 mM AAPF, 25° C., pH 8.6; relative to same protease without inhibitor
Metric: relative activity, BMA (%)
Answers are plain numbers, in %.

Q191R: protease of SEQ ID NO: 3 with amino acid substitution Q191R in the count according to SEQ ID NO: 1 (protein, listed as Bacillus lentus) AQSVPWGISRVQAPAAHNRGLTGSGVKVAVLDTGISTHPDLNIRGGASFVPGEPSTQDGNGHGTHVAGTIAALNNSIGVLGVAPSAELYAVKVLGADGEGAISSIAQGLEWAGNNGMHVANLSLGSPSPSATLEQAVNSATSRGVLVVAASGNSGASSISYPARYANAMAVGATDQNNNRASFSRYGAGLDIVAPGVNVQSTYPGSTYASLNGTSMATPHVAGAAALVKQKNPSWSNVQIRNHLKNTATSLGSTNLYGSGLVNAEAATR ... 63

In: So what's the measured relative activity, BMA for this one? A187D: protease of SEQ ID NO: 3 with amino acid substitution A187D in the count according to SEQ ID NO: 1 (protein, listed as Bacillus lentus) AQSVPWGISRVQAPAAHNRGLTGSGVKVAVLDTGISTHPDLNIRGGASFVPGEPSTQDGNGHGTHVAGTIAALNNSIGVLGVAPSAELYAVKVLGADGEGAISSIAQGLEWAGNNGMHVANLSLGSPSPSATLEQAVNSATSRGVLVVAASGNSGASSISYPARYANAMAVGATDQNNNRDSFSQYGAGLDIVAPGVNVQSTYPGSTYASLNGTSMATPHVAGAAALVKQKNPSWSNVQIRNHLKNTATSLGSTNLYGSGLVNAEAATR
Out: 79

Where these numbers come from: patent US9695461B2
